MEASUREMENT_TARGET: FLuc-N-HiBiT (firefly luciferase) (Photinus pyralis, UniProt P08659, form not given/L550V)
Sequence (P08659 2-550 L550V, form open): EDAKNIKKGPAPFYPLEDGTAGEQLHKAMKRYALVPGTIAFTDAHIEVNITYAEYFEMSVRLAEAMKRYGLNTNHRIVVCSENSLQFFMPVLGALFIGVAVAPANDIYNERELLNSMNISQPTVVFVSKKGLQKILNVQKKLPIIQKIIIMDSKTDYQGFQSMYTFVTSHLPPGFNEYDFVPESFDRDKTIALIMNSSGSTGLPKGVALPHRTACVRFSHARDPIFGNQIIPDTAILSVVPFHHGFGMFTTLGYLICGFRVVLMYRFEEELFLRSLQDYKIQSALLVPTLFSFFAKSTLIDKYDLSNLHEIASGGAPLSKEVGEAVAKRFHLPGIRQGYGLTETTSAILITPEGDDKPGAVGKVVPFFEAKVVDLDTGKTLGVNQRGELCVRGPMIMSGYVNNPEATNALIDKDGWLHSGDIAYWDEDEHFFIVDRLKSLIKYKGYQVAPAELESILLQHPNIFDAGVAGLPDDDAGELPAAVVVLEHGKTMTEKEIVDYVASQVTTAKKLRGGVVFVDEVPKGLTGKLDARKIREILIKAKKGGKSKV
EXPERIMENT_NOTES: SDR assay, FLuc-N-HiBiT
SETUP_CONDITIONS: substituted indoline (clade A'); + ATP
ENDPOINT_NAME: pSDR50 (clade A')

Example molecules with recorded pSDR50 (clade A'):
{"MOLECULE": "O=C(NCCc1cccs1)c1cccc2c1CCN2C(=O)Nc1ccc(F)cc1", "pSDR50 (clade A')": 5.86}
{"MOLECULE": "O=C(O)c1cccc2c1CCN2C(=O)c1ccc(F)cc1", "pSDR50 (clade A')": 5.89}
{"MOLECULE": "CN(C)CCNC(=O)c1cccc2c1CCN2C(=O)Nc1ccccc1", "pSDR50 (clade A')": 5.93}

1. Cc1cccc(NC(=O)N2CCc3c(C(=O)N4CCN(C)CC4)cccc32)c1
2. Cc1cccc(NC(=O)N2CCc3c(C(=O)NC(C)(C)C)cccc32)c1
Ask: Which of these two has the smaller recorded pSDR50 (clade A'): 1 or 2 ? State the label of the item chosen.
Reply: 2
